Target: HLA-A*24:03
Assay: IEDB peptide-MHC binding, purified MHC/direct/fluorescence; filed as Kd, often an IC50 or EC50 that approximates it; bounds were set here for any values at or beyond the usual limits of such assays
Details: source organism: Vibrio vulnificus YJ016
Quantity: Kd

Query string: Request: Kd, test system HLA-A*24:03, entry DAYGFHNYK
Result string: ≥ 20 µM

###

Target: HLA-B*15:17
Assay: IEDB peptide-MHC binding, purified MHC/direct/fluorescence; filed as Kd, often an IC50 or EC50 that approximates it; bounds were set here for any values at or beyond the usual limits of such assays
Details: source organism: Yersinia enterocolitica subsp. enterocolitica 8081
Quantity: pKd
Give bare numbers, as −log10 of the molar value.

Query string: GET /values?readout=pKd&item= YIYDGKVNY
Result string: 8.52

###

Biological target: HLA-B*40:01
Test: IEDB peptide-MHC binding, purified MHC/direct/fluorescence; filed as Kd, often an IC50 or EC50 that approximates it; bounds were set here for any values at or beyond the usual limits of such assays
Conditions: source organism: Marburg virus - Musoke, Kenya, 1980
Quantity: pKd
Numbers only, as −log10 of the molar value.

Query string: GET /values?readout=pKd&item= AEALLADGL
Result string: 7.95

###

Molecular target: HLA-B*39:01
Assay: IEDB peptide-MHC binding, purified MHC/competitive/fluorescence; filed as Kd, often an IC50 or EC50 that approximates it; bounds were set here for any values at or beyond the usual limits of such assays
Details: source organism: Lechiguanas virus
Quantity: Kd

Query string: GET /values?readout=Kd&item= HTQAIEGAW
Result string: ≥ 20 µM

###

Target: HLA-A*02:01
Assay: IEDB peptide-MHC binding, purified MHC/direct/fluorescence; filed as Kd, often an IC50 or EC50 that approximates it; bounds were set here for any values at or beyond the usual limits of such assays
Settings: source organism: Escherichia coli 536
pKd: −log10 of the molar value.
Quantity: pKd

Query string: Request: pKd, test system HLA-A*02:01, entry RYICPVQQI
Result string: ≤ 4.70

###

Molecular target: HLA-B*15:42
Experiment: IEDB peptide-MHC binding, purified MHC/competitive/fluorescence; filed as Kd, often an IC50 or EC50 that approximates it; bounds were set here for any values at or beyond the usual limits of such assays
Details: source organism: Mycobacterium tuberculosis variant bovis
Quantity: Kd

Query string: GET /values?readout=Kd&item= REAPYELNI
Result string: ≥ 5 µM

###

Assignment: determine reported Kd for the given sequences.
Target: HLA-A*31:01
Assay: IEDB peptide-MHC binding, purified MHC/competitive/radioactivity; filed as Kd, often an IC50 or EC50 that approximates it; bounds were set here for any values at or beyond the usual limits of such assays
Settings: source organism: Mammarenavirus machupoense
Numbers only, in µM.

SSFDYCGVNH: 1.97

The record that follows has no Kd shown yet.
Query string: GET /values?readout=Kd&item= TCNDHYLCLR
Result string: 0.123

###

Biological target: HLA-A*02:12
Assay: IEDB peptide-MHC binding, purified MHC/competitive/fluorescence; filed as Kd, often an IC50 or EC50 that approximates it; bounds were set here for any values at or beyond the usual limits of such assays
Settings: source organism: Cryptosporidium parvum Iowa II
Quantity: Kd

Query string: GET /values?readout=Kd&item= VYWENEVSI
Result string: 286 nM

###

Molecular target: HLA-A*26:02
Assay: IEDB peptide-MHC binding, purified MHC/direct/fluorescence; filed as Kd, often an IC50 or EC50 that approximates it; bounds were set here for any values at or beyond the usual limits of such assays
Details: source organism: dengue virus type 3
pKd: −log10 of the molar value.
Quantity: pKd

Query string: GET /values?readout=pKd&item= EVHTWTEQY
Result string: ≥ 9.00

###

Target: HLA-A*02:03
Assay: IEDB peptide-MHC binding, purified MHC/competitive/radioactivity; filed as Kd, often an IC50 or EC50 that approximates it; bounds were set here for any values at or beyond the usual limits of such assays
Conditions: source organism: SARS coronavirus Tor2
Output satisfied for records whose Kd is lower than 7 nM, not satisfied for records at or above 7 nM.

MLLTFLTSLL: not satisfied

Would you kindly look at the next entry?
Query string: Is Kd strictly under 7 nM for the entry TLIDFYLCFL ?
Result string: satisfied

###

Target: HLA-B*48:01
Assay: IEDB peptide-MHC binding, purified MHC/direct/fluorescence; filed as Kd, often an IC50 or EC50 that approximates it; bounds were set here for any values at or beyond the usual limits of such assays
Settings: source organism: Dengue virus
Quantity: pKd
Give bare numbers, as −log10 of the molar value.

Query string: GET /values?readout=pKd&item= RREKRSVAL
Result string: 6.07

###

Assignment: determine reported pKd for the given sequences.
Target: HLA-A*23:01
Assay: IEDB peptide-MHC binding, purified MHC/competitive/radioactivity; filed as Kd, often an IC50 or EC50 that approximates it; bounds were set here for any values at or beyond the usual limits of such assays
Conditions: source organism: Mammarenavirus brazilense
One number for each entry, as −log10 of the molar value.

LNYVIHKLF: 6.01

The record that follows has no pKd shown yet.
Query string: GET /values?readout=pKd&item= VDICFWSTL
Result string: 5.12

###

Target: HLA-C*04:01
Assay: IEDB peptide-MHC binding, purified MHC/direct/fluorescence; filed as Kd, often an IC50 or EC50 that approximates it; bounds were set here for any values at or beyond the usual limits of such assays
Settings: source organism: Rickettsia sibirica 246
Quantity: Kd

Query string: GET /values?readout=Kd&item= FADSDNIAM
Result string: ≥ 20 µM

###

Target: HLA-A*31:01
Experiment: IEDB peptide-MHC binding, purified MHC/competitive/fluorescence; filed as Kd, often an IC50 or EC50 that approximates it; bounds were set here for any values at or beyond the usual limits of such assays
Conditions: source organism: Escherichia coli 536
Quantity: Kd (nM)
Numbers only, in nM.

KLIAVPHTK: 900

The record that follows has no Kd shown yet.
Query string: GET /values?readout=Kd&item= RVGIYFGMK
Result string: 45.6

###

Biological target: HLA-B*83:01
Experiment: IEDB peptide-MHC binding, purified MHC/competitive/fluorescence; filed as Kd, often an IC50 or EC50 that approximates it; bounds were set here for any values at or beyond the usual limits of such assays
Settings: source organism: Mammarenavirus lassaense
Quantity: Kd

Query string: GET /values?readout=Kd&item= LIDGRTSFY
Result string: ≥ 5 µM

###

Molecular target: HLA-A*69:01
Assay: IEDB peptide-MHC binding, purified MHC/competitive/fluorescence; filed as Kd, often an IC50 or EC50 that approximates it; bounds were set here for any values at or beyond the usual limits of such assays
Settings: source organism: Escherichia coli 536
Quantity: Kd

Query string: GET /values?readout=Kd&item= RVGIYFGMK
Result string: ≥ 20 µM

###

Biological target: HLA-A*26:01
Test: IEDB peptide-MHC binding, purified MHC/direct/fluorescence; filed as Kd, often an IC50 or EC50 that approximates it; bounds were set here for any values at or beyond the usual limits of such assays
Conditions: source organism: Rickettsia sibirica 246
Quantity: Kd (nM)
One number for each entry, in nM.

Query string: GET /values?readout=Kd&item= SSSGMDAYY
Result string: 124

###

Biological target: HLA-B*40:01
Experiment: IEDB peptide-MHC binding, purified MHC/competitive/fluorescence; filed as Kd, often an IC50 or EC50 that approximates it; bounds were set here for any values at or beyond the usual limits of such assays
Conditions: source organism: Escherichia coli B7A
Quantity: pKd
Answers are plain numbers, as −log10 of the molar value.

Query string: GET /values?readout=pKd&item= GEINGEHVP
Result string: 7.06

###

Target: HLA-A*02:01
Experiment: IEDB peptide-MHC binding, purified MHC/competitive/fluorescence; filed as Kd, often an IC50 or EC50 that approximates it; bounds were set here for any values at or beyond the usual limits of such assays
Details: source organism: Zaire ebolavirus
pKd: −log10 of the molar value.
Quantity: pKd

LSDAIFDDL: ≤ 4.70

The record that follows has no pKd shown yet.
Query string: GET /values?readout=pKd&item= TTIGEWAFW
Result string: ≤ 4.70

###

Biological target: HLA-B*15:01
Experiment: IEDB peptide-MHC binding, purified MHC/competitive/fluorescence; filed as Kd, often an IC50 or EC50 that approximates it; bounds were set here for any values at or beyond the usual limits of such assays
Conditions: source organism: Yersinia mollaretii ATCC 43969
pKd: −log10 of the molar value.
Quantity: pKd

Query string: GET /values?readout=pKd&item= MMWIPGWFG
Result string: ≤ 4.70

###

Biological target: HLA-A*02:12
Assay: IEDB peptide-MHC binding, purified MHC/direct/fluorescence; filed as Kd, often an IC50 or EC50 that approximates it; bounds were set here for any values at or beyond the usual limits of such assays
Details: source organism: Rickettsia sibirica 246
pKd: −log10 of the molar value.
Quantity: pKd

Query string: GET /values?readout=pKd&item= SVANIDRIK
Result string: ≤ 4.70
